Assay system: MERTK (UniProt Q12866)
Sequence (Q12866 whole entry, looked up): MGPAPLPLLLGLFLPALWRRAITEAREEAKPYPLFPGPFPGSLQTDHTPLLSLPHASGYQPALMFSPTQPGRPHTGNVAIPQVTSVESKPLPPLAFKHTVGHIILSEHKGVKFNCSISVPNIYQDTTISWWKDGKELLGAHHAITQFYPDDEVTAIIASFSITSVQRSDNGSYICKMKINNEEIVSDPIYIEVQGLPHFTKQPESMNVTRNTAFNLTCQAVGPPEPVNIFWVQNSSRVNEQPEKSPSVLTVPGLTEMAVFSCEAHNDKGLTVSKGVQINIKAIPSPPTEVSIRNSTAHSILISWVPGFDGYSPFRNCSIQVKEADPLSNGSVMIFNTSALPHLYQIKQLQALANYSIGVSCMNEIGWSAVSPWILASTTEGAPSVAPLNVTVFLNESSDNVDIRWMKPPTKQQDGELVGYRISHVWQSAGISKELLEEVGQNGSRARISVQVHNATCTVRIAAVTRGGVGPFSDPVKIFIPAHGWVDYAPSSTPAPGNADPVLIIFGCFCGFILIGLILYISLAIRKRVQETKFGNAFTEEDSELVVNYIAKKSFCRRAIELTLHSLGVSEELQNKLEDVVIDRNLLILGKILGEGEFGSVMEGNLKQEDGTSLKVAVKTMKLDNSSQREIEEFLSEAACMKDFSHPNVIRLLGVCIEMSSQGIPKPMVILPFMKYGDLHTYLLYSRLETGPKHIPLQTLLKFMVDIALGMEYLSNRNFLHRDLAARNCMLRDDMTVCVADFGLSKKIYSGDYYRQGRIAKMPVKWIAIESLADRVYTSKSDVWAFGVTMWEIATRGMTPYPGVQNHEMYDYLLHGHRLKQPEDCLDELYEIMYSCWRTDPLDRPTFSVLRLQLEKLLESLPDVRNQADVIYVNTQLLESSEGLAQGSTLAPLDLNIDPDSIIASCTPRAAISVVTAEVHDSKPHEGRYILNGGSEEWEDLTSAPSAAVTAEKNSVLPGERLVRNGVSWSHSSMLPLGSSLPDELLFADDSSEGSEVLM
Assay: phosphorylation enrichment, bacterial display (enrichment ratio); higher = better substrate or ligand; peptides without Tyr show the background
Values of phosphorylation enrichment greater than or equal to 0.5 map to T; values below map to F.

Incoming: Does phosphorylation enrichment meet or surpass 0.5 for SPRDTYSDRSG [CTPS1_Y567] ?
Outgoing: F

Incoming: Entry HEEDNYIEMIP [NWD2_Y566_L569M] please
Outgoing: T

Incoming: Entry KSSDVYVSYDC [SORL1_Y136_Y141C] please
Outgoing: T

Incoming: Entry GRVLGYGTFGK [FLT4_Y853_A855T] please
Outgoing: F

Incoming: Entry MGSFNYLGFAR [SPTLC2_Y178_YF] please
Outgoing: F

Incoming: Entry TLMNAYSSRCH [KIF11_Y231_S235C] please
Outgoing: F

Incoming: Entry ATDLAYYLVRE [ASL_Y375_K380E] please
Outgoing: T

Incoming: Entry TSFSGYRCHRH [NKAPL_Y94_Y96C_YF] please
Outgoing: F

Incoming: Entry MGGSVYFSYPD [HIKESHI_Y55] please
Outgoing: T

Incoming: Entry LEIETYRRLRD [KRT12_Y429_L433R] please
Outgoing: T

***
Incoming: Does phosphorylation enrichment meet or surpass 0.5 for DVVKDCAFVHM [RBM14_Y114_Y114C] ?
Outgoing: F

Incoming: Entry GKSHIYFWTLE [EML2_Y230] please
Outgoing: T

Incoming: Entry LESTLYESSVV [TRPV4_Y91] please
Outgoing: T

Incoming: Entry ENPAKYDDIKK [GAPDH_Y255_K251N] please
Outgoing: F

----------
Tested on: AncSZ
Assay: phosphorylation enrichment, bacterial display (enrichment ratio); higher = better substrate or ligand; peptides without Tyr show the background
Values of phosphorylation enrichment greater than or equal to 1 map to Fulfilled; values below map to Not fulfilled.

Here's what some known entries look like.
Incoming: Does phosphorylation enrichment meet or surpass 1 for KKYPDYIQIAM [SGMS2_Y59] ?
Outgoing: Fulfilled

Incoming: Entry FDDDDYDTDFV [BLM_Y296] please
Outgoing: Fulfilled

Incoming: Entry FLLTVYSIFSK [SGCE_Y38] please
Outgoing: Fulfilled

Incoming: Entry CQASLYPSNHD [LRIG1_Y996_G993A] please
Outgoing: Fulfilled

Incoming: Entry DVFLKYLNFAT [PDE6B_Y212] please
Outgoing: Fulfilled

***
Incoming: Does phosphorylation enrichment meet or surpass 1 for NFATLHLKIFH [PDE6B_Y219_Y219H_YF] ?
Outgoing: Fulfilled

Incoming: Entry SPFMLYQFLKQ [RPAP3_Y567_D564Y_YF] please
Outgoing: Fulfilled

Incoming: Entry LKGQVYILVRE [ASS1_Y359_G362V] please
Outgoing: Fulfilled

Incoming: Entry ADRLEYSRTGL [MMUT_Y287_G284R] please
Outgoing: Not fulfilled

Incoming: Entry KSSDVYVSYDC [SORL1_Y136_Y141C] please
Outgoing: Fulfilled

Incoming: Entry PINEPYGDDLD [JUP_Y693_M697L] please
Outgoing: Fulfilled

Incoming: Entry YGLQAYTKVKT [ALDH2_Y502_E504K] please
Outgoing: Fulfilled

Incoming: Entry RFLERDIFNRE [HLA-DPB1_Y57_Y57D_YF] please
Outgoing: Fulfilled

Incoming: Entry GLAELYEYQKK [CKAP5_Y1854_K1857Q] please
Outgoing: Fulfilled

Incoming: Entry DVELLYPVKEK [EPHX1_Y283] please
Outgoing: Not fulfilled

Incoming: Entry SDFSSYARTSI [TERT_Y949_YF] please
Outgoing: Not fulfilled

Incoming: Entry PSELYYSKIGP [SMG1_Y2254] please
Outgoing: Fulfilled

Incoming: Entry CLLHCYFSQIR [MCM3AP_Y873] please
Outgoing: Not fulfilled

Incoming: Entry GGMTEYELVVV [KRAS_Y4_K5E] please
Outgoing: Fulfilled

Incoming: Entry VTPVMYTFDEF [COL10A1_Y623_G618V_YF] please
Outgoing: Fulfilled

Incoming: Entry EEGNPSFSSAR [MCCC2_Y520_Y520S_YF] please
Outgoing: Not fulfilled

Incoming: Entry RMETAYGPSVT [MXRA5_Y2717_E2716A] please
Outgoing: Not fulfilled

Incoming: Entry EFLHKYKGFKI [SYNE1_Y6953_Q6951H_YF] please
Outgoing: Not fulfilled

----------
Test system: Fer (mouse)
Assay: phosphorylation enrichment, bacterial display (enrichment ratio); higher = better substrate or ligand; peptides without Tyr show the background
Below, each of the sequences is paired with its reported phosphorylation enrichment value.

Incoming: # query: phosphorylation enrichment of entry PELINCHQHNS [BTK_Y361_Y361C]
Outgoing: 0.56

***
Incoming: # query: phosphorylation enrichment of entry GEPLSHTRFSL [TFRC_Y20_Y20H]
Outgoing: 0.448

----------
Assay system: Fes (UniProt P07332)
Sequence (P07332 whole entry, looked up): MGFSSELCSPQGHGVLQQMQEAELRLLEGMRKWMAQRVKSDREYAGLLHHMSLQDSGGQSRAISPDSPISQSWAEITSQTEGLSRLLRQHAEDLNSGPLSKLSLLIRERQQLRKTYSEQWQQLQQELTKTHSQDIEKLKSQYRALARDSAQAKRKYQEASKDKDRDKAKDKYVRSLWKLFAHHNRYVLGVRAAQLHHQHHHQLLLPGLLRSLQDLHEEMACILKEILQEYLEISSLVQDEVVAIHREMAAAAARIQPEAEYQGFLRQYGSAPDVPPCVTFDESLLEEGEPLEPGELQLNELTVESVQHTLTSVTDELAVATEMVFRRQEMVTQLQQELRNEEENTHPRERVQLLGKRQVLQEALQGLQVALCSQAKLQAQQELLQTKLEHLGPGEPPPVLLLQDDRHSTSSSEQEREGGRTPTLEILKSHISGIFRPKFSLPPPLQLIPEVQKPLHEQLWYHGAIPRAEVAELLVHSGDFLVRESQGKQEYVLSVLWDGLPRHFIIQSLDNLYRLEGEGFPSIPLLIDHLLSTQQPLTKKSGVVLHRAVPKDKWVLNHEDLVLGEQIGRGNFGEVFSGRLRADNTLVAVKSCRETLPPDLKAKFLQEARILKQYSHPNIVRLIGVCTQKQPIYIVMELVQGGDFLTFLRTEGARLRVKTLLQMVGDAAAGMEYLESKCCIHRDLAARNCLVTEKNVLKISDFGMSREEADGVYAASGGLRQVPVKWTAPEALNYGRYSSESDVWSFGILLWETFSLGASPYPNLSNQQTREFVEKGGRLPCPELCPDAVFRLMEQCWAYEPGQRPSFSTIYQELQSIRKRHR
Assay: phosphorylation enrichment, bacterial display (enrichment ratio); higher = better substrate or ligand; peptides without Tyr show the background
Value kind: phosphorylation enrichment
// keep it numeric: no unit symbol after the value

Incoming: # query: phosphorylation enrichment of entry YRAPGYREVVI [TNS2_Y673]
Outgoing: 0.634

----------
System: Fer (mouse)
Assay: phosphorylation enrichment, bacterial display (enrichment ratio); higher = better substrate or ligand; peptides without Tyr show the background
Value kind: phosphorylation enrichment
// keep it numeric: no unit symbol after the value

Some entries whose results are on file:
Incoming: # query: phosphorylation enrichment of entry LYSINYLHFGD [KDM4C_Y201_E206D]
Outgoing: 15.8

Incoming: Entry PQGVRYTFTID [DCX_Y103_I104T_YF] please
Outgoing: 0.796

Incoming: Entry GLRSFYETSKM [MAGED2_Y449_YF] please
Outgoing: 0.505

Incoming: Entry KNRDVSSSDFF [USP24_Y2134_Y2134S_YF] please
Outgoing: 0.427

***
Incoming: # query: phosphorylation enrichment of entry KILGRYYETGS [PAX2_Y72]
Outgoing: 0.418

Incoming: Entry TVLEPYTDPFF [ZC3H18_Y367_A368T_YF] please
Outgoing: 0.438

Incoming: Entry SDFSSYARTSI [TERT_Y949_YF] please
Outgoing: 0.56

----------
Below, each of the sequences is paired with its reported phosphorylation enrichment value.
Assay system: MERTK (UniProt Q12866)
Assay: phosphorylation enrichment, bacterial display (enrichment ratio); higher = better substrate or ligand; peptides without Tyr show the background

Incoming: # query: phosphorylation enrichment of entry YPLELYERVRI [PRKCG_Y312_M317I]
Outgoing: 0.437

----------
Below, each of the sequences is paired with its reported SH2 binding enrichment value.
Assay system: Grb2 SH2 (UniProt P62993)
Sequence (P62993 whole entry, looked up): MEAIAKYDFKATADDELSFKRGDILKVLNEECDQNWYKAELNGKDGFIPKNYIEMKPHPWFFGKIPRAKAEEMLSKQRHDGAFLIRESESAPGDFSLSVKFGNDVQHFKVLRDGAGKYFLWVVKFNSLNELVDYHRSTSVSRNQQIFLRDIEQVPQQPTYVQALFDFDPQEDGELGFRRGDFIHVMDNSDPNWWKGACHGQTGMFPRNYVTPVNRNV
Assay: SH2 binding enrichment of the phosphorylated peptide, bacterial display (enrichment ratio); higher = better substrate or ligand; peptides without Tyr show the background
// keep it numeric: no unit symbol after the value

Some entries whose results are on file:
Incoming: # query: SH2 binding enrichment of entry KNDSNYVVKGN [KIT_Y823]
Outgoing: 0.814

Incoming: Entry VKYGAYINDFK [GLB1_Y488_N484K] please
Outgoing: 7.46

Incoming: Entry ADKSAYLMGVN [MYH7_Y386_L390V] please
Outgoing: 0.786

Incoming: Entry SIKDKYVTAFY [KCNH2_Y611_L615F] please
Outgoing: 0.607

Incoming: Entry NWGKKYPTCNS [PTPRZ1_Y53] please
Outgoing: 1.06

Now take the following sequence into account.
Incoming: # query: SH2 binding enrichment of entry NKEAIYSGYIR [SMCHD1_Y283]
Outgoing: 0.871

----------
Assay system: Fyn (UniProt P06241)
Sequence (P06241 whole entry, looked up): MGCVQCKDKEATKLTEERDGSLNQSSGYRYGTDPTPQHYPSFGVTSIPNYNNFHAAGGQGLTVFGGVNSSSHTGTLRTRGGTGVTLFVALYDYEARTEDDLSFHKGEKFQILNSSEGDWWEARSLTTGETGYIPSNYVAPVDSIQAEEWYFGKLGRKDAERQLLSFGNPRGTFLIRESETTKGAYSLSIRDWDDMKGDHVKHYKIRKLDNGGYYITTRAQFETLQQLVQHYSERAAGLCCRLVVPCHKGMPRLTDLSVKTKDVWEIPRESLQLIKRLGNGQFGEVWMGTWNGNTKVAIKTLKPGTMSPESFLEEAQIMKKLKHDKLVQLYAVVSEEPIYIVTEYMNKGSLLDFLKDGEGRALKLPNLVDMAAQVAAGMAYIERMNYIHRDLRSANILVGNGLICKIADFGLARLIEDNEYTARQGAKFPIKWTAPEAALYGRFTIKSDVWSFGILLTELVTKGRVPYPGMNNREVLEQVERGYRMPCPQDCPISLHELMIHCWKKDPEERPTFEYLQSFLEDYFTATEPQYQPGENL
Assay: phosphorylation enrichment, bacterial display (enrichment ratio); higher = better substrate or ligand; peptides without Tyr show the background
Please assign a class to every record based on measured phosphorylation enrichment, with ranges lower level: < 0.5; middle level: ≥ 0.5 and < 0.8; upper level: ≥ 0.8

Here's what some known entries look like.
Incoming: Category of RAIDMYLMGCF [GABRB2_Y308_K303R] :
Outgoing: upper level

Incoming: Entry TEALYYTDDPA [ADPRS_Y75_T79P] please
Outgoing: upper level

Incoming: Entry FQLPFYNMVPS [BMPR1A_Y458_YF] please
Outgoing: upper level

Incoming: Entry RFWPRYVKVGS [NOG_Y172] please
Outgoing: middle level

Incoming: Entry RIPFRYPKEFQ [IDS_Y234_H229R] please
Outgoing: middle level

Incoming: Entry EEGNPYFSGAR [MCCC2_Y520_S523G_YF] please
Outgoing: middle level

Incoming: Entry NGEDPYAGSTD [XRCC1_Y515] please
Outgoing: middle level

Incoming: Entry SGIFQYNIAKF [FOXL2_Y83_I84N_YF] please
Outgoing: lower level

***
Incoming: Category of LYSINYLHFGD [KDM4C_Y201_E206D] :
Outgoing: upper level

Incoming: Entry PEVRRYVLPLN [RPE65_Y368] please
Outgoing: middle level

Incoming: Entry VEKGSYSALRA [ABCC2_Y845_L849R] please
Outgoing: lower level

Incoming: Entry DHAGMYGLGDR [MAPT_Y18_T17M] please
Outgoing: middle level
